Biological target: T1, H-2Kd (mouse)
T1 chain 1: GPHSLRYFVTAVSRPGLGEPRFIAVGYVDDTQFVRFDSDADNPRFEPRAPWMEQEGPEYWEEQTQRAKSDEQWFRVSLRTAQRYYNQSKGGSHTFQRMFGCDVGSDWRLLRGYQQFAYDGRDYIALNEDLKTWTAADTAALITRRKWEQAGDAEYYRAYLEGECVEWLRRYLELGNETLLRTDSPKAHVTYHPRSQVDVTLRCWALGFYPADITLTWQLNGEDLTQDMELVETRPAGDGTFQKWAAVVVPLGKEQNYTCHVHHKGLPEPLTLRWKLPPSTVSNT
T1 chain 2: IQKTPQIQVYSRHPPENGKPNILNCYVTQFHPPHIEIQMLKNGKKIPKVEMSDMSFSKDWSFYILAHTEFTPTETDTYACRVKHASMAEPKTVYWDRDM
Assay: competition
Conditions: modification not given
Can you tell me pIC50 for the items I'm about to list?
Give bare numbers, as −log10 of the molar value.

# Binder, Experimental result
data = [
    ("WYIPPSLRTL [F057.08]", 7.02),
    ("AYANAKAAI [1114.05]", 7.22),
]

In the following, a different binder is considered.
Entry HYISMGTSGL [14.0137] needs its pIC50 filled in; supply it.
7.08
